Recorded Positions of amino acids of region important for binding in epitope, one value per entry.
# Test system: IgE antibodies from patients
# method_summary: Epitope mapping (2): overlapping 10-amino-acid peptide fragments shifted by one amino acid
# Assay type: binding, human
# test_conditions: positions numbered within the 15-amino-acid epitope; serum of 5 patients

Below are worked cases with known answers.
[[record]]
substance = "51 (DGDKSRYLGKGTVKA; epitope) [compound 51]"
result = "6-13"

[[record]]
substance = "15 (YSGAFQCLKDGAGEV; epitope) [compound 15]"
result = "8-15"

[[record]]
substance = "25 (DVGRSAEVHSKKTVL; epitope) [compound 25]"
result = "1-7"

[[record]]
substance = "21 (KEVIDYKPTPFVEHD; epitope) [compound 21]"
result = "2-15"

[[record]]
substance = "8 (DRFKVFADYEAYIKS; epitope) [compound 8]"
result = "2-9"


In the following, a different substance is considered.
**Query** What is its Positions of amino acids of region important for binding in epitope for IgE antibodies from patients? Entry: 54 (YMVYMFKYDSTHGRF; epitope) [compound 54]
**Result** 1-15

* * *

# Tested on: IgE antibodies from patients
# method_summary: Epitope mapping (2): overlapping 10-amino-acid peptide fragments shifted by one amino acid
# Format: binding, human
# test_conditions: positions numbered within the 15-amino-acid epitope; serum of 5 patients
Where no end group is shown, it is not given here.
Recorded Positions of amino acids of region important for binding in epitope, one value per entry.

Below are worked cases with known answers.
[[record]]
substance = "11 (SMVLVKMKEIAEAYL; not fully specified (N-terminus)) [compound 11]"
result = "9-15"

[[record]]
substance = "29 (DNQKYRQLQKELSQV; epitope) [compound 29]"
result = "3-14"


**Query** What is its Positions of amino acids of region important for binding in epitope for IgE antibodies from patients? Entry: 4 (TKLRLSNRPAFMPSE; epitope) [compound 4]
**Result** 1-15

* * *

# Test system: IgE antibodies from patients
# method_summary: Epitope mapping (2): overlapping 10-amino-acid peptide fragments shifted by one amino acid
# Assay type: binding, human
# test_conditions: positions numbered within the 15-amino-acid epitope; serum of 5 patients
readout_type: Positions of amino acids of region important for binding in epitope

Below are worked cases with known answers.
[[record]]
substance = "27 (IHVVEVQEKSSGRTA; epitope) [compound 27]"
result = "2-12"

[[record]]
substance = "45 (GAPVTGYLMERKKKG; epitope) [compound 45]"
result = "3-7"

[[record]]
substance = "3 (SCFYHAFAGAEQAET; epitope) [compound 3]"
result = "1-15"

[[record]]
substance = "31 (YNSMEQLCINFTNEK; epitope) [compound 31]"
result = "7-15"


**Query** I'd like to know its Positions of amino acids of region important for binding in epitope. The substance in question is 53 (NLKNVIKAKYGKDAT; epitope) [compound 53]
**Result** 6-15

**Query** I'd like to know its Positions of amino acids of region important for binding in epitope. The substance in question is 46 (RQKYIRRVGDKINLT; epitope) [compound 46]
**Result** 2-13

* * *

Recorded Positions of amino acids of region important for binding in epitope, one value per entry.
# Tested on: IgE antibodies from patients
# method_summary: Epitope mapping (2): overlapping 10-amino-acid peptide fragments shifted by one amino acid
# Format: binding, human
# test_conditions: positions numbered within the 15-amino-acid epitope; serum of 5 patients

Below are worked cases with known answers.
[[record]]
substance = "6 (LDNRLYYMVAEHDSS; epitope) [compound 6]"
tested_system = "IgE antibodies from patients"
result = "1-11"

[[record]]
substance = "32 (LYPPPPPEDKAKKGG; epitope) [compound 32]"
tested_system = "IgE antibodies from patients"
result = "1-10"

[[record]]
substance = "40 (TDLRGLLKRLKKMKT; epitope) [compound 40]"
tested_system = "IgE antibodies from patients"
result = "2-8"


**Query** I'd like to know its Positions of amino acids of region important for binding in epitope. The substance in question is 49 (VLAGEPVGSRSKVTV; epitope) [compound 49]
**Result** 5-13

**Query** I'd like to know its Positions of amino acids of region important for binding in epitope. The substance in question is 34 (EEDKVNTLTKAKTKL; epitope) [compound 34]
**Result** 5-14
